Condition Description: in methanol, 298.15 K
Measured Endpoint: solubility (mole fraction)

Chemical Smiles: C[C@@H]1O[C@@H]1P(=O)([O-])[O-].[Na+].[Na+]
Readout Value: 0.0138

====

Condition Description: in cyclohexane, 308.15 K

Chemical Smiles: C[C@@H]1O[C@@H]1P(=O)([O-])[O-].[Na+].[Na+]
solubility (mole fraction): 0.000196

====

Condition Description: in acetone, 303.15 K

Chemical Smiles: C[C@@H]1O[C@@H]1P(=O)([O-])[O-].[Na+].[Na+]
solubility (mole fraction): 9.72e-05

====

Condition Description: in acetone, 283.15 K
Measured Endpoint: solubility (mole fraction)

Chemical Smiles: C[C@@H]1O[C@@H]1P(=O)([O-])[O-].[Na+].[Na+]
Measured Endpoint: solubility (mole fraction)
Readout Value: 0.000186

====

Condition Description: in methanol, 288.15 K
Measured Endpoint: solubility (mole fraction)

Chemical Smiles: C[C@@H]1O[C@@H]1P(=O)([O-])[O-].[Na+].[Na+]
Measured Endpoint: solubility (mole fraction)
Readout Value: 0.0165

====

Condition Description: in acetone, 323.15 K

Chemical Smiles: C[C@@H]1O[C@@H]1P(=O)([O-])[O-].[Na+].[Na+]
solubility (mole fraction): 5.47e-05

====

Condition Description: in cyclohexane, 288.15 K
Measured Endpoint: solubility (mole fraction)

Chemical Smiles: C[C@@H]1O[C@@H]1P(=O)([O-])[O-].[Na+].[Na+]
Readout Value: 0.000353

====

Condition Description: in cyclohexane, 293.15 K
Measured Endpoint: solubility (mole fraction)

Chemical Smiles: C[C@@H]1O[C@@H]1P(=O)([O-])[O-].[Na+].[Na+]
Readout Value: 0.0003

====

Condition Description: in n-propanol, 313.15 K
Measured Endpoint: solubility (mole fraction)

Chemical Smiles: C[C@@H]1O[C@@H]1P(=O)([O-])[O-].[Na+].[Na+]
Readout Value: 1.34e-05

====

Condition Description: in ethanol, 318.15 K

Chemical Smiles: C[C@@H]1O[C@@H]1P(=O)([O-])[O-].[Na+].[Na+]
solubility (mole fraction): 0.000316

====

Condition Description: in ethanol, 313.15 K

Chemical Smiles: C[C@@H]1O[C@@H]1P(=O)([O-])[O-].[Na+].[Na+]
solubility (mole fraction): 0.000383

====

Condition Description: in n-propanol, 318.15 K

Chemical Smiles: C[C@@H]1O[C@@H]1P(=O)([O-])[O-].[Na+].[Na+]
solubility (mole fraction): 1.04e-05

====

Condition Description: in n-propanol, 293.15 K

Chemical Smiles: C[C@@H]1O[C@@H]1P(=O)([O-])[O-].[Na+].[Na+]
solubility (mole fraction): 6.19e-05

====

Condition Description: in methanol, 313.15 K

Chemical Smiles: C[C@@H]1O[C@@H]1P(=O)([O-])[O-].[Na+].[Na+]
solubility (mole fraction): 0.0111

====

Condition Description: in ethanol, 323.15 K
Measured Endpoint: solubility (mole fraction)

Chemical Smiles: C[C@@H]1O[C@@H]1P(=O)([O-])[O-].[Na+].[Na+]
Readout Value: 0.000266

====

Condition Description: in methanol, 308.15 K

Chemical Smiles: C[C@@H]1O[C@@H]1P(=O)([O-])[O-].[Na+].[Na+]
solubility (mole fraction): 0.0121

====

Condition Description: in n-propanol, 288.15 K

Chemical Smiles: C[C@@H]1O[C@@H]1P(=O)([O-])[O-].[Na+].[Na+]
solubility (mole fraction): 8.01e-05

====

Condition Description: in ethanol, 288.15 K

Chemical Smiles: C[C@@H]1O[C@@H]1P(=O)([O-])[O-].[Na+].[Na+]
solubility (mole fraction): 0.000934

====

Condition Description: in DMF, 323.15 K

Chemical Smiles: C[C@@H]1O[C@@H]1P(=O)([O-])[O-].[Na+].[Na+]
solubility (mole fraction): 0.000291

====

Condition Description: in cyclohexane, 318.15 K
Measured Endpoint: solubility (mole fraction)

Chemical Smiles: C[C@@H]1O[C@@H]1P(=O)([O-])[O-].[Na+].[Na+]
Readout Value: 0.000151

====

Condition Description: in DMF, 298.15 K
Measured Endpoint: solubility (mole fraction)

Chemical Smiles: C[C@@H]1O[C@@H]1P(=O)([O-])[O-].[Na+].[Na+]
Measured Endpoint: solubility (mole fraction)
Readout Value: 0.000443

====

Condition Description: in acetone, 318.15 K
Measured Endpoint: solubility (mole fraction)

Chemical Smiles: C[C@@H]1O[C@@H]1P(=O)([O-])[O-].[Na+].[Na+]
Measured Endpoint: solubility (mole fraction)
Readout Value: 6.07e-05

====

Condition Description: in cyclohexane, 298.15 K

Chemical Smiles: C[C@@H]1O[C@@H]1P(=O)([O-])[O-].[Na+].[Na+]
solubility (mole fraction): 0.000252

====

Condition Description: in ethanol, 308.15 K
Measured Endpoint: solubility (mole fraction)

Chemical Smiles: C[C@@H]1O[C@@H]1P(=O)([O-])[O-].[Na+].[Na+]
Readout Value: 0.000463

====

Condition Description: in cyclohexane, 283.15 K
Measured Endpoint: solubility (mole fraction)

Chemical Smiles: C[C@@H]1O[C@@H]1P(=O)([O-])[O-].[Na+].[Na+]
Readout Value: 0.000403
